Tested System: T1, cynomolgus monkey serum albumin (cynomolgus monkey, UniProt A2V9Z4 25-608)
T1 construct: amine-coupled to a CM5 chip; also called CSA; cynoSA
T1 sequence (A2V9Z4 25-608 limits assumed): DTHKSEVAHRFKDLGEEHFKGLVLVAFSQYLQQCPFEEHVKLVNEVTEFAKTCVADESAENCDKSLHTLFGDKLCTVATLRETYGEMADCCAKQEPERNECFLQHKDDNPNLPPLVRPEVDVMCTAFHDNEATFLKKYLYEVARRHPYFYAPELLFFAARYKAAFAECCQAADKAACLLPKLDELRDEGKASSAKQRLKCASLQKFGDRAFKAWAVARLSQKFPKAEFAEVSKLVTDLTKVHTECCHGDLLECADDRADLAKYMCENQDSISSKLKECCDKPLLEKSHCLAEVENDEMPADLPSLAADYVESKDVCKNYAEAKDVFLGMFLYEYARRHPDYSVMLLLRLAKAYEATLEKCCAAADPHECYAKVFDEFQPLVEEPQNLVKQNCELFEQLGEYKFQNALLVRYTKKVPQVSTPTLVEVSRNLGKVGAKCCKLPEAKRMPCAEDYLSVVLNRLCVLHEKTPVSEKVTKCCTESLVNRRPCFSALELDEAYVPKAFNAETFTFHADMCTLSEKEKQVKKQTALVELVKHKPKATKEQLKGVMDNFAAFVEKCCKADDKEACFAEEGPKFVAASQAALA
Assay Name: SPR, BIAcore 3000, CSA on CM5 chip
Exercise: for every item that follows, state its recorded kon.
Could you give me the number in M⁻¹ s⁻¹? Just the number is fine.

Query kon for 2D3-9GS-59F2-MycHis (other) EVQLVESGGSLVQPGGSLRLSCAASGFTFDDYAMSWVRQVPGKGLEWVSSINWSGTHTDYADSVKGRFTISRNNANNTLYLQMNSLKSEDTAVYYCAKNWRDAGTTWFEKSGSAGQGTQVTVSSGGGGSGGGSAAARYWDFDVFGGGTPVGGAAAEQKLISEEDLNGAAHHHHHH
4850

Query kon for 2D3-9GS-59C2-MycHis (other) EVQLVESGGSLVQPGGSLRLSCAASGFTFDDYAMSWVRQVPGKGLEWVSSINWSGTHTDYADSVKGRFTISRNNANNTLYLQMNSLKSEDTAVYYCAKNWRDAGTTWFEKSGSAGQGTQVTVSSGGGGSGGGSAAARDWDFDVFGGGTPVGGAAAEQKLISEEDLNGAAHHHHHH
2750

Query kon for 2D3-9GS-56E4-MycHis (other) EVQLVESGGSLVQPGGSLRLSCAASGFTFDDYAMSWVRQVPGKGLEWVSSINWSGTHTDYADSVKGRFTISRNNANNTLYLQMNSLKSEDTAVYYCAKNWRDAGTTWFEKSGSAGQGTQVTVSSGGGGSGGGSAAARYWDYDVFGGGTPVGGAAAEQKLISEEDLNGAAHHHHHH
4010

Query kon for 2D3-9GS-59H12-MycHis (other) EVQLVESGGSLVQPGGSLRLSCAASGFTFDDYAMSWVRQVPGKGLEWVSSINWSGTHTDYADSVKGRFTISRNNANNTLYLQMNSLKSEDTAVYYCAKNWRDAGTTWFEKSGSAGQGTQVTVSSGGGGSGGGSAAARSWDFDVFGGGTPVGGAAAEQKLISEEDLNGAAHHHHHH
3450
